The following compounds are listed with their measured Dose.FC.LYZ.S values.
Tested on: ENR+CD organoids (ISC to Paneth cell differentiation)
assayOverview: Primary screen: CCh-stimulated lysozyme secretion LYZ.S, 2.5-D 384-well ENR+CD organoid differentiation
Format: cell-based, mouse
conditionDetails: primary screen, dose 0.40 uM
measurementName: Dose.FC.LYZ.S (log2 fold change)

C[C@@H]1CCN(C(=O)CC#N)C[C@@H]1N(C)c1ncnc2[nH]ccc12 [Tofacitinib (CP-690550, Tasocitinib)] | 0.010
CCc1cccc2c3c([nH]c12)C(CC)(CC(=O)O)OCC3 (centres unmarked) [Etodolac] | 0.127
CO[C@H]1C[C@@H]2CC[C@@H](C)[C@@](O)(O2)C(=O)C(=O)N2CCCC[C@H]2C(=O)O[C@H]([C@H](C)C[C@@H]2CC[C@@H](OC(=O)C(C)(CO)CO)[C@H](OC)C2)CC(=O)[C@H](C)/C=C(\C)[C@@H](O)[C@@H](OC)C(=O)[C@H](C)C[C@H](C)/C=C/C=C/C=C/1C [Temsirolimus (CCI-779, NSC 683864)] | 0.152
C[C@H](N[C@@H](CCc1ccccc1)C(=O)O)C(=O)N1CCC[C@H]1C(=O)O.O.O [Enalaprilat Dihydrate] | 0.111
CNCc1ccc(-c2cc(-c3nc(-c4ccc(S(=O)(=O)C(C)C)cc4)cnc3N)on2)cc1 [VE-822] | −0.064
CCOc1ccc(Cc2cc([C@@H]3O[C@H](CO)[C@@H](O)[C@H](O)[C@H]3O)ccc2Cl)cc1 [Dapagliflozin, reference compound] | 0.135
C[C@H]1COC2=C1C(=O)C(=O)c1c2ccc2c1CCCC2(C)C [Cryptotanshinone] | −0.105
C[C@H](CS)C(=O)N1CCC[C@H]1C(=O)O [Captopril] | 0.109
